Experiment: HUVEC growth inhibition – cell-based, human, primary screen (AID 575);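 also: 100% = median of untreated cell wells with 0.1% DMSO on each plate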
Conditions: HUVEC proliferation, CellTiter-Glo luminescence, 72 h; at 10 µM; hits give low values
viability values, listed per item
Provide only the numeric value, understood in %.

Some solved cases for reference:
compound | unit_name | viability
CCOC(=O)c1ccc(NC(=O)CC2SC(=NC)N(C)C2=O)cc1 (centres undefined) | % | 110
CCOCC(=O)Nc1nc2c(s1)C(=O)CC(C)(C)C2 | % | 97
CCCc1cc(C(=O)Nc2sc3c(c2C#N)CCC3)no1 | % | 58
Cc1noc(C)c1CSc1ccccc1C(=O)N1CCN(c2ccccc2)CC1 | % | 97.8

Query viability for CCOC(=O)C(CC)Sc1ncnc2nc[nH]c12 (centres undefined)
103

Query viability for O=C(Nc1ccncc1)c1cc2ccccc2o1
101

Query viability for Cc1ccc(-c2nc3cnccn3c2Nc2ccc3c(c2)OCO3)o1
92.4

Query viability for CC(C)c1ccc(NC(=O)CCNS(=O)(=O)c2cccc3nonc23)cc1
84.6

Query viability for CCOC(=O)/C(C#N)=C(/C)c1ccc(OC)cc1
110

Query viability for Cc1ccc(C)c(S(=O)(=O)n2cnc3ccccc32)c1
109

Query viability for CCN1CCN(c2nc3c(c(=O)[nH]c(=O)n3C)n2CCSc2nc3ccccc3s2)CC1
115

Query viability for O=C(NC1CCCCCC1)c1c(F)c(F)c(F)c(F)c1F
78.9

Query viability for CCOC(=O)C1CCN(c2c(NC3CCCc4ccccc43)c(=O)c2=O)CC1 (centres undefined)
106

Query viability for N#Cc1ccc(-c2csc(NC(=O)C3CC3)n2)cc1
109
